Here is a set of molecules with reported IC50 for UniProtKB P08684, compiled from the literature.
Sequence (P08684 whole entry): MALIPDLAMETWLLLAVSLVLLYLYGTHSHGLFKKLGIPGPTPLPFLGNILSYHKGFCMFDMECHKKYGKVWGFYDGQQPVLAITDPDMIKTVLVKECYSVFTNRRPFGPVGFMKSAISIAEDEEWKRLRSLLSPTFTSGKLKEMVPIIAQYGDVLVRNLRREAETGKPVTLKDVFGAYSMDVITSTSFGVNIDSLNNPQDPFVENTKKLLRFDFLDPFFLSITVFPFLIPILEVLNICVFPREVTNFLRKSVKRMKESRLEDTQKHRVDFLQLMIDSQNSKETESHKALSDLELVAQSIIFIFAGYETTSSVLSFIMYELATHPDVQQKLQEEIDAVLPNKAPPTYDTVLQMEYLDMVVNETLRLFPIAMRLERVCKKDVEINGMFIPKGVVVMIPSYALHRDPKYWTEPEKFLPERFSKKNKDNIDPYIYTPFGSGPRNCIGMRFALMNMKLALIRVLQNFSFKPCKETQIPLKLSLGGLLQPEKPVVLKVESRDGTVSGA

[
  {
    "Molecule": "COCCc1ccc(OCC(O)CNC(C)C)cc1 (configuration not stated)",
    "Tested target": "UniProtKB P08684",
    "IC50": "> 50 µM"
  },
  {
    "Molecule": "CCCOc1cccc2oc(=O)ccc12",
    "Tested target": "UniProtKB P08684",
    "IC50": "> 250 µM"
  },
  {
    "Molecule": "Nc1cc(CN2CCC(C(=O)N3CCC(n4c(=O)n(-c5cc(F)cc(F)c5)c5cc(F)ccc54)CC3)CC2)ccn1",
    "Tested target": "UniProtKB P08684",
    "IC50": "> 30 µM"
  },
  {
    "Molecule": "Fc1cc(Cl)ccc1-c1ccc(Cn2nnc3ccccc32)cn1",
    "Tested target": "UniProtKB P08684",
    "IC50": "> 10 µM"
  },
  {
    "Molecule": "O=C(O)CCCOc1cccc(CCCCCCOc2cc(-c3ccc4c(c3)OCO4)cc(-c3ccccc3F)c2)c1CCC(=O)O",
    "Tested target": "UniProtKB P08684",
    "IC50": "> 7.5 µM"
  },
  {
    "Molecule": "CC(C)N1CCC(Oc2ccc3c(c2)cc2n3CCN(Cc3ccc(F)cc3)C2=O)CC1",
    "Tested target": "UniProtKB P08684",
    "IC50": "> 50 µM"
  }
]

Would you kindly look at the next entry?
Prompt: Find IC50 (UniProtKB P08684) for the entry "Oc1cccc(-c2ccc(-c3cccc(O)c3)cc2)c1"
Response: 2.1 µM
